test system: HeLa; experiment: Cytotoxicity against human HeLa cells assessed as reduction in cell number after 72 hrs by cell counting assay; format: functional, cell-based
pIC50: −log10 of the molar value.
Entries and their pIC50
measured-quantity: pIC50

INSERT INTO results (smiles_record, readout_value) VALUES
  ('COc1nc(OC)c2scc([C@H]3C[C@H](OC(C)=O)[C@@H](COC(C)=O)O3)c2n1', '< 3.60'),
  ('Clc1nc(-n2cncn2)c2sccc2n1', '< 3.60'),
  ('O=c1[nH]c(=O)c2scc(Br)c2[nH]1', '< 3.60'),
  ('COc1nc(OC)c2scc([C@H]3C[C@H](O)[C@@H](CO)O3)c2n1', '< 3.60'),
  ('Clc1ncc2sccc2n1', '< 3.60'),
  ('COc1nc(OC)c2scc([C@H]3CC(=O)[C@@H](CO)O3)c2n1', '< 3.60'),
  ('Nc1nc(Cl)nc2ccsc12', '< 3.60'),
  ('O=c1[nH]c(=O)c2sccc2[nH]1', '< 3.60'),
  ('O=c1[nH]c(=O)c2scc([C@H]3C[C@H](O)[C@@H](CO)O3)c2[nH]1', '< 3.60');
